Assay Info: Plasma dosimetry of PFHxSA and PFHxS by targeted LC/MS/MS
Assay type: in vivo, rat
Reported Conditions: female, Sprague Dawley (Crl:CD(SD)), rat, plasma, oral, 10 mg/kg/day, PFHxSA 10 mg/kg/day oral 5 days; female rats; mean ± SD; read-out: PFHxSA Female Plasma Conc.
Measurement Name: concentration at 24 h (µM)
Record the value in µM, omitting the unit from your answer.

Prompt: Fill in reported concentration at 24 h for this entry: NS(=O)(=O)C(F)(F)C(F)(F)C(F)(F)C(F)(F)C(F)(F)C(F)(F)F [PFHxSA, Perfluorohexanesulfonamide]
Response: 64.9

====

Assay Info: Ultracentrifugation plasma protein binding assay, rat plasma
Format: in vitro ADME
Reported Conditions: both sexes, SD; Rat plasma; 10 µM; ultracentrifugation; read-out: fup (fraction unbound in plasma)
Description: Human and rat plasma were evaluated for plasma protein binding of PFHxSA and PFHxS using ultracentrifugation. […] Targeted, quantitative analysis of in vitro hepatocyte metabolic stability and plasma protein binding assay samples was conducted on a Waters (Milford, MA, USA) Xevo-TQS micro ultra-high-performance liquid chromatography tandem mass spectrometry system (UPLC-MS/MS), modified with a PFAS analysis kit. Samples were analyzed in negative ion mode with UniSpray ionization. […]
Measurement Name: fraction unbound at 1 h, 10 µM
API note: the answer field is a bare number with no unit suffix.

1. NS(=O)(=O)C(F)(F)C(F)(F)C(F)(F)C(F)(F)C(F)(F)C(F)(F)F [PFHxSA, Perfluorohexanesulfonamide] ... 0.001

Next compound, please.
Prompt: Fill in reported fraction unbound at 1 h, 10 µM for this entry: O=S(=O)(O)C(F)(F)C(F)(F)C(F)(F)C(F)(F)C(F)(F)C(F)(F)F
Response: 0.0008
